This listing pairs compounds with measured Kd.
Biological target: JAK2 JH1 WT (T842-G1132) (Homo sapiens, UniProt O60674)
Construct: *JAK2 JH1 WT (T842-G1132) N-His60-avi-TEV; His6 (N); TEV cleavage site (N); purchased Biortus
Sequence (O60674 842-1132): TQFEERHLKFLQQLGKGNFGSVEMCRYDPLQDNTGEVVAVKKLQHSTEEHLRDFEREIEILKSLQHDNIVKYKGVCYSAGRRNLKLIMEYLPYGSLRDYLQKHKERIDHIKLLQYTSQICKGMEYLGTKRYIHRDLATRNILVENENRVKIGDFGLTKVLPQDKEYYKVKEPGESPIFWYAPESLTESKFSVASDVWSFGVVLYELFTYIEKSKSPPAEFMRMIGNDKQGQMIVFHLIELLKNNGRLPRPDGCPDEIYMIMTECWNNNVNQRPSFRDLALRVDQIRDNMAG
Assay: Surface Plasmon Resonance (SPR) binding assay, JAK2 JH1 domain
Conditions: SPR, JAK2 JH1 domain

[
  {
    "COMPOUND": "CNC(=O)c1nnc(NC(=O)C2CC2)cc1Nc1cc(F)cc(-c2cnn(C3CN(Cc4ccn(C)n4)C3)c2)c1OC [Compound 155]",
    "Kd": "5 to 100 µM"
  },
  {
    "COMPOUND": "CNC(=O)c1nnc(NC(=O)C2CC2)cc1Nc1cccc(-c2ccc(C(=O)N(C)Cc3c(C)ccnc3C)nc2)c1OC [Compound 133]",
    "Kd": "5 to 100 µM"
  },
  {
    "COMPOUND": "CNC(=O)c1nnc(NC(=O)C2CC2)cc1Nc1cccc(-c2ncc(NC(=O)Cc3cccn(C)c3=O)cn2)c1OC [Compound 6]",
    "Kd": "0.5 to 5 µM"
  },
  {
    "COMPOUND": "CNC(=O)c1nnc(NC(=O)C2CC2)cc1Nc1cccc(-c2cnn(C3CN(Cc4cc(C#N)ccn4)C3)c2)c1OC [Compound 66]",
    "Kd": "5 to 100 µM"
  },
  {
    "COMPOUND": "CNC(=O)c1nnc(NC(=O)C2CC2)cc1Nc1cccc(-c2ccc(C(=O)N(C)Cc3nnc(C)s3)nc2)c1OC [Compound 149]",
    "Kd": "5 to 100 µM"
  },
  {
    "COMPOUND": "CNC(=O)c1nnc(NC(=O)C2CC2)cc1Nc1cccc(-c2ccc(C(=O)N(C)Cc3cccn(C)c3=O)cc2)c1OC [Compound 3]",
    "Kd": "5 to 100 µM"
  },
  {
    "COMPOUND": "CNC(=O)c1nnc(NC(=O)C2CC2)cc1Nc1cccc(-c2cnn(C3CN(Cc4ccnc(C)n4)C3)c2)c1OC [Compound 148]",
    "Kd": "0.5 to 5 µM"
  }
]

====

Test system: TF1 JAK2 V617F STAT5 reporter
Test: Cellular TF1 STAT5 assay (luciferase reporter), JAK2 V617F
Format: cell-based
Details: TF1 JAK2 V617F, read-out: Cell PD TF1 V617F STAT5 (IC50)
Method: Selected compounds of the present disclosure were tested in a Cellular TF1 STAT3 or STAT5 assay, to measure the degree of JAK2-mediated STAT3 or STAT5 phosphorylation, respectively. TF1 cells (immortalized erythroleukemia line) expressing either wildtype or V617F mutant JAK2 with a luciferase reporter were used. […] Cell plating: Cells were counted using Vi-Cell XR, then cells were spun down and resuspended in growth media to 200,000 cells/ml. […]

[
  {
    "COMPOUND": "CNC(=O)c1nnc(NC(=O)C2CC2)cc1Nc1ccc(C)c(-c2cnc(C(=O)N(C)Cc3ccn(C)n3)c(F)c2)c1OC",
    "IC50": "0.5 to 5 µM"
  },
  {
    "COMPOUND": "CNC(=O)c1nnc(NC(=O)C2CC2)cc1Nc1cccc(-c2cnc(C(=O)N(C)Cc3cccnn3)c(F)c2)c1OC",
    "IC50": "0.5 to 5 µM"
  },
  {
    "COMPOUND": "CNC(=O)c1nnc(NC(=O)C2CC2)cc1Nc1cccc(-c2cnc(C(=O)N(C)Cc3cc(C#N)ccn3)nc2)c1OC",
    "IC50": "0.05 to 0.5 µM"
  },
  {
    "COMPOUND": "CNC(=O)c1nnc(NC(=O)C2CC2)cc1Nc1cccc(-c2ccc(C(=O)N(C)Cc3cncc(C#N)c3)nc2)c1OC",
    "IC50": "0.5 to 5 µM"
  },
  {
    "COMPOUND": "CNC(=O)c1nnc(NC(=O)C2CC2)cc1Nc1cccc(-c2ccc(C(=O)N(C)[C@H](C)c3cnn(C)c3)nc2)c1OC (single isomer, unassigned)",
    "IC50": "5 to 100 µM"
  },
  {
    "COMPOUND": "CCOc1ccccc1CN(C)C(=O)c1ccc(-c2cccc(Nc3cc(NC(=O)C4CC4)nnc3C(=O)NC)c2OC)cn1",
    "IC50": "0.5 to 5 µM"
  },
  {
    "COMPOUND": "CNC(=O)c1nnc(NC(=O)C2CC2)cc1Nc1cccc(-c2cnn(C3CN(Cc4ncccn4)C3)c2)c1OC",
    "IC50": "0.5 to 5 µM"
  }
]

====

This listing pairs compounds with measured pIC50.
Tested on: TF1 JAK2 V617F STAT5 reporter
Experiment: Cellular TF1 STAT5 assay (luciferase reporter), JAK2 V617F
Format: cell-based
Settings: TF1 JAK2 V617F, read-out: Cell PD TF1 V617F STAT5 (IC50)
pIC50: −log10 of the molar value.

[
  {
    "COMPOUND": "CNC(=O)c1nnc(NC(=O)C2CC2)cc1Nc1cccc(-c2cnn(C3CN(Cc4cccc(OC)n4)C3)c2)c1OC",
    "pIC50": "6.30 to 7.30"
  },
  {
    "COMPOUND": "CNC(=O)c1nnc(NC(=O)C2CC2)cc1Nc1cccc(-c2cnn(C3CN(Cc4cccnn4)C3)c2)c1OC",
    "pIC50": "6.30 to 7.30"
  },
  {
    "COMPOUND": "CNC(=O)c1nnc(NC(=O)C2CC2)cc1Nc1cccc(-c2ccc(C(=O)N(C)CC3Cc4ccccc4CO3)nc2)c1OC (stereo not drawn)",
    "pIC50": "4.00 to 5.30"
  },
  {
    "COMPOUND": "CNC(=O)c1nnc(NC(=O)C2CC2)cc1Nc1ccc(C)c(-c2ccc(C(=O)N(C)Cc3cn(C)nc3C)nc2)c1OC",
    "pIC50": "6.30 to 7.30"
  },
  {
    "COMPOUND": "CNC(=O)c1nnc(NC(=O)C2CC2)cc1Nc1cccc(-c2cnn(C3CN([C@H](C)c4ccccn4)C3)c2)c1OC (single isomer, unassigned)",
    "pIC50": "4.00 to 5.30"
  },
  {
    "COMPOUND": "CNC(=O)c1nnc(NC(=O)C2CC2)cc1Nc1cccc(-c2cnn(C3(CC#N)CN(Cc4ccccn4)C3)c2)c1OC",
    "pIC50": "4.00 to 5.30"
  }
]

====

Biological target: JAK2 JH2 WT (V536-D812) [W659A, W777A, F794H solubilizing mutations] (Homo sapiens, UniProt O60674, F794H/W659A/W777A)
Construct: **JAK2 JH2 WT (V536-D812) [W659A, W777A, F794H solubilizing mutations]; C-thrombin-avi-His6; thrombin cleavage site (C); His6 (C); purchased Biortus
Sequence (O60674 536-812 W659A/W777A/F794H): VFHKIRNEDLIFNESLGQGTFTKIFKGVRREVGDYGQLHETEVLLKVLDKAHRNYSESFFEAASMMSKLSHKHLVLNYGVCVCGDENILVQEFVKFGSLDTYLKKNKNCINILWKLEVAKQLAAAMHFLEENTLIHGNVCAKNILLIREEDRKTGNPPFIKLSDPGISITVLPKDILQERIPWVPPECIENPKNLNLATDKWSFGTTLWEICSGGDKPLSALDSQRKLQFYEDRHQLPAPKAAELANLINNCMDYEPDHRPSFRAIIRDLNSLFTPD
Experiment: Surface Plasmon Resonance (SPR) binding assay, JAK2 JH2 domain
Procedure: Selected compounds of the present disclosure were tested in a Surface Plasmon Resonance (SPR) Assay to measure their binding kinetics and affinity for proteins of interest. Prepare buffer: 50 mM HEPES pH 7.5, 150 mM NaCl, 0.05% (v/v) Tween, and 10% (v/v) glycerol were combined and pH was adjusted to 7.5, then filtered. 5 mM DTT, was added, and buffer without DMSO was reserved for compound resuspension. […]
This listing pairs compounds with measured Kd.

[
  {
    "COMPOUND": "CNC(=O)c1nnc(NC(=O)C2CC2)cc1Nc1cccc(-c2ccc(C(=O)N(C)Cc3ncc(COC4CC4)s3)nc2)c1OC",
    "Kd": "0.01 to 10 nM"
  },
  {
    "COMPOUND": "CNC(=O)c1nnc(NC(=O)C2CC2)cc1Nc1cccc(-c2cnn(C3CN(Cc4cccc(C5(O)COC5)n4)C3)c2)c1OC",
    "Kd": "0.01 to 10 nM"
  },
  {
    "COMPOUND": "CNC(=O)c1nnc(NC(=O)C2CC2)cc1Nc1cccc(-c2cnn(C3CN(Cc4cccc(C5(C#N)CC5)n4)C3)c2)c1OC",
    "Kd": "0.01 to 10 nM"
  },
  {
    "COMPOUND": "CNC(=O)c1nnc(NC(=O)OC2CC2)cc1Nc1cccc(-c2cnn(C3CC(Oc4cccc(C#N)n4)C3)c2)c1OC (mixture of isomers)",
    "Kd": "0.01 to 10 nM"
  },
  {
    "COMPOUND": "C=Cc1cccc(CN2CC(n3cc(-c4cccc(Nc5cc(NC(=O)C6CC6)nnc5C(=O)NC)c4OC)cn3)C2)n1",
    "Kd": "0.01 to 10 nM"
  },
  {
    "COMPOUND": "CNC(=O)c1nnc(NC(=O)C2CC2)cc1Nc1cccc(-c2ccc(C(=O)N(C)Cc3c(C)nn(C)c3Cl)nc2)c1OC",
    "Kd": "0.01 to 10 nM"
  },
  {
    "COMPOUND": "CNC(=O)c1nnc(NC(=O)C2CC2)cc1Nc1cccc(-c2ccc(C3CN(Cc4cc(S(C)(=O)=O)ccn4)C3)nc2)c1OC",
    "Kd": "0.01 to 10 nM"
  },
  {
    "COMPOUND": "CNC(=O)c1nnc(NC(=O)C2CC2)cc1Nc1cccc(-c2ccc(C3CN(Cc4cccc(C(F)(F)F)n4)C3)nc2)c1OC",
    "Kd": "10 to 50 nM"
  },
  {
    "COMPOUND": "COc1c(Nc2cc(NC(=O)C3CC3)nn3cc(C)nc23)cccc1-c1cnn(C2CN(Cc3ccccn3)C2)c1",
    "Kd": "0.01 to 10 nM"
  },
  {
    "COMPOUND": "CNC(=O)c1nnc(NC(=O)C2CC2)cc1Nc1ccc(C)c(-c2ccc(C3CN(Cc4cccc(C#N)n4)C3)nc2)c1OC",
    "Kd": "0.01 to 10 nM"
  },
  {
    "COMPOUND": "CNC(=O)c1nnc(NC(=O)C2CC2)cc1Nc1cccc(-c2cnc(C3CN(Cc4cccc5ncnn45)C3)nc2)c1OC",
    "Kd": "0.01 to 10 nM"
  },
  {
    "COMPOUND": "CNC(=O)c1nnc(NC(=O)C2CC2)cc1Nc1cccc(-c2ccc(C(=O)N3CCc4cccnc4CC3)nc2)c1OC",
    "Kd": "0.01 to 10 nM"
  },
  {
    "COMPOUND": "CNC(=O)c1nnc(NC(=O)C2CC2)cc1Nc1cccc(-c2ccc(C(=O)N(C)Cc3cnn(C4CC4)c3C)nc2)c1OC",
    "Kd": "0.01 to 10 nM"
  },
  {
    "COMPOUND": "COc1c(Nc2cc(NC(=O)C3CC3)nnc2-c2ncc[nH]2)cccc1-c1ccc(C(=O)N(C)Cc2cn(C)nc2C)nc1",
    "Kd": "0.01 to 10 nM"
  },
  {
    "COMPOUND": "CNC(=O)c1nnc(NC(=O)C2CC2)cc1Nc1cccc(-c2ccc(C3CN(Cc4cnccc4C(F)F)C3)nc2)c1OC",
    "Kd": "10 to 50 nM"
  },
  {
    "COMPOUND": "CNC(=O)c1nnc(NC(=O)C2CC2)cc1Nc1cccc(-c2ccc(C(=O)N(C)Cc3nc(CN(C)C)cs3)nc2)c1OC",
    "Kd": "10 to 50 nM"
  },
  {
    "COMPOUND": "CNC(=O)c1nnc(NC(=O)C2CC2)cc1Nc1cccc(-c2ccc(C(=O)N(C)Cc3ncc(CN(C)C)s3)nc2)c1OC",
    "Kd": "0.01 to 10 nM"
  },
  {
    "COMPOUND": "CNC(=O)c1nnc(NC(=O)C2CC2)cc1Nc1cccc(-c2cnn(C3CN(Cc4cccc(C(F)(F)F)n4)C3)c2)c1OC",
    "Kd": "0.01 to 10 nM"
  },
  {
    "COMPOUND": "CNC(=O)c1nnc(NC(=O)C2CC2)cc1Nc1cccc(-c2cnn(C3CN(Cc4cccc(C(O)C(C)C)n4)C3)c2)c1OC (stereo not shown)",
    "Kd": "10 to 50 nM"
  },
  {
    "COMPOUND": "CNC(=O)c1nnc(NC(=O)C2CC2)cc1Nc1cccc(-c2ccc(C(=O)N(C)C[C@@H]3CCCC3(F)F)cc2)c1OC (single isomer, unassigned)",
    "Kd": "0.01 to 10 nM"
  },
  {
    "COMPOUND": "CNC(=O)c1nnc(NC(=O)C2CC2)cc1Nc1cccc(-c2cnn(C3CN(Cc4cccc5nccn45)C3)c2)c1OC",
    "Kd": "0.01 to 10 nM"
  },
  {
    "COMPOUND": "CNC(=O)c1nnc(NC(=O)C2CC2)cc1Nc1ccc(C)c(-c2cn([C@@H]3CN(Cc4cccc(C)n4)[C@H]3C)nn2)c1OC (racemic)",
    "Kd": "0.01 to 10 nM"
  }
]

Origin of measurements: patent US20240368122A1
